Assay Procedure: BSK_4H_Eotaxin3: BioMAP Diversity Plus: 4H Assay for Eotaxin 3 Biomarker Activity (AID 2283000);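 as to outcome: CCL26 protein level quantified by ELISA in parallel with SRB cytotoxicity check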
Test Parameters: primary human endothelial cells (HUVEC); actives raise or lower the signal
Activity calls are given as the source filed them. The calls were made as follows: active = hit-call score of the fitted dose curve at least 0.9, where 1 is the maximum; inactive = score below 0.9.
The reply should name one outcome from Yes for active, No for inactive

Incoming: Tell me the recorded outcome of this test for `ClC1=C(Cl)C(Cl)(Cl)C(Cl)=C1Cl` .
Outgoing: Yes

Incoming: Tell me the recorded outcome of this test for `Nc1cccc2c(N)cccc12` .
Outgoing: No

Incoming: Tell me the recorded outcome of this test for `CC(C)(C)CC(C)(C)c1ccc(O)c(-n2nc3ccccc3n2)c1` .
Outgoing: No

Incoming: Tell me the recorded outcome of this test for `CC(=O)CC(C)(C)O` .
Outgoing: No

Incoming: Tell me the recorded outcome of this test for `CCCOC(=O)c1ccc(O)cc1` .
Outgoing: No

Incoming: Tell me the recorded outcome of this test for `CCCCCCCCCCCCCCCS(=O)(=O)Oc1ccccc1` .
Outgoing: No

Incoming: Tell me the recorded outcome of this test for `CN(C)C=O` .
Outgoing: No

Incoming: Tell me the recorded outcome of this test for `CC1=C(/C=C/C(C)=C/C=C/C(C)=C/C(=O)O)C(C)(C)CCC1` .
Outgoing: Yes

Incoming: Tell me the recorded outcome of this test for CCc1ccc(CCOc2ccc(CC3SC(=O)NC3=O)cc2)nc1 (configuration not stated) .
Outgoing: No

Incoming: Tell me the recorded outcome of this test for `c1ccc2c(c1)Cc1ccccc1-2` .
Outgoing: No

Incoming: Tell me the recorded outcome of this test for `CCCCCCCCCCCCN1CCCC1=O` .
Outgoing: Yes

Incoming: Tell me the recorded outcome of this test for COCC(C)O (configuration not stated) .
Outgoing: No

====

Assay Procedure: CCTE_Shafer_MEA_dev_burst_rate: CCTE's Neural Network Formation Assay for Burst Rate, Shafer Lab (AID 2284042)
Calls of active or inactive are those of the source. The calls were made as follows: active = hit-call score of the fitted dose curve at least 0.9, where 1 is the maximum; inactive = score below 0.9.
The reply should name one outcome from active, inactive

Incoming: Tell me the recorded outcome of this test for CC(O)CO (stereo unspecified) .
Outgoing: inactive

Incoming: Tell me the recorded outcome of this test for `c1ccc2cc3c(ccc4ccccc43)cc2c1` .
Outgoing: inactive

Incoming: Tell me the recorded outcome of this test for `OCCC(F)(F)C(F)(F)C(F)(F)C(F)(F)C(F)(F)C(F)(F)C(F)(F)C(F)(F)F` .
Outgoing: inactive

Incoming: Tell me the recorded outcome of this test for `CN1CCC[C@H]1c1cccnc1` .
Outgoing: inactive

Incoming: Tell me the recorded outcome of this test for `OCCC(F)(F)C(F)(F)C(F)(F)C(F)(F)C(F)(F)C(F)(F)F` .
Outgoing: inactive

Incoming: Tell me the recorded outcome of this test for `CC1=C(/C=C/C(C)=C/C=C/C(C)=C/C(=O)O)C(C)(C)CCC1` .
Outgoing: active

====

Read-out: CYP3A5 (gene 1577)
Assay Procedure: LTEA_HepaRG_CYP3A5: Life Technologies and Expression Analysis (LTEA) Assay for CYP3A5 using HepaRG (AID 2283493)
Test Parameters: mRNA level, 48 h; actives raise or lower the signal
Active and inactive are the calls of the source. The calls were made as follows: active = hit-call score of the fitted dose curve at least 0.9, where 1 is the maximum; inactive = score below 0.9.
The reply should name one outcome from active, inactive

Incoming: Tell me the recorded outcome of this test for `OC1CCCCC1` .
Outgoing: inactive

Incoming: Tell me the recorded outcome of this test for `CC[C@H](c1ccc(O)cc1)[C@@H](CC)c1ccc(O)cc1` .
Outgoing: active

Incoming: Tell me the recorded outcome of this test for COCC(C)O (configuration not stated) .
Outgoing: inactive

Incoming: Tell me the recorded outcome of this test for `CCN(CC)CCNc1ccc(CNC=O)c2sc3ccc(OC)cc3c(=O)c12` .
Outgoing: active

Incoming: Tell me the recorded outcome of this test for `C[C@@H]1C[C@H]2[C@@H]3CCC4=CC(=O)C=C[C@]4(C)[C@@]3(F)[C@@H](O)C[C@]2(C)[C@@]1(O)C(=O)COP(=O)(O)O` .
Outgoing: inactive

Incoming: Tell me the recorded outcome of this test for OC1CCC(C2CCCCC2)CC1 (configuration not stated) .
Outgoing: inactive

Incoming: Tell me the recorded outcome of this test for `CC(=O)NC1(c2cccc(F)c2)CCN(CC[C@@]2(c3ccc(Cl)c(Cl)c3)CN(c3ccccc3)C(=O)CO2)CC1` .
Outgoing: active

Incoming: Tell me the recorded outcome of this test for `CCCCCCCCOC(=O)CCCCCCCCC(=O)OCCCCCCCC` .
Outgoing: inactive

Incoming: Tell me the recorded outcome of this test for `CC(=O)CC(C)(C)O` .
Outgoing: inactive

Incoming: Tell me the recorded outcome of this test for CCC(C)(C)C1CCC(O)CC1 (configuration not stated) .
Outgoing: inactive

Incoming: Tell me the recorded outcome of this test for `CN1CCN(c2ccccc2/C=C2\SCCN(c3ccc(Cl)c(Cl)c3)C2=O)CC1` .
Outgoing: inactive

Incoming: Tell me the recorded outcome of this test for CCCCC(CC)COC(=O)CCCCC(=O)OCC(CC)CCCC (configuration not stated) .
Outgoing: inactive
